Provenance of the data: the Immune Epitope Database (IEDB)

molecular target: HLA-A*02:01; experiment: IEDB peptide-MHC binding, purified MHC/direct/fluorescence; filed as Kd, often an IC50 or EC50 that approximates it; bounds were set here for any values at or beyond the usual limits of such assays; settings: source organism: Yersinia enterocolitica
VALUE_KIND: Kd (nM)
Kindly answer with a numeric value in nM, unit omitted.

Task: # get_value(readout= Kd, system= HLA-A*02:01) for `TLLCGAATA`
Result: 196

---

biological target: HLA-B*44:02; assay: IEDB peptide-MHC binding, purified MHC/competitive/fluorescence; filed as Kd, often an IC50 or EC50 that approximates it; bounds were set here for any values at or beyond the usual limits of such assays; conditions: source organism: Lyssavirus rabies
pKd: −log10 of the molar value.
VALUE_KIND: pKd

Task: Quick check: pKd on HLA-B*44:02, item `YLDNVGVHI` ?
Result: ≤ 5.30

---

target: HLA-B*27:03; assay: IEDB peptide-MHC binding, purified MHC/direct/fluorescence; filed as Kd, often an IC50 or EC50 that approximates it; bounds were set here for any values at or beyond the usual limits of such assays; details: source organism: Escherichia coli O157:H7 str. EC869
VALUE_KIND: Kd

Task: What does the data say about its Kd? Entry: `YGSWFGLIY`
Result: ≥ 20 µM

---

target: HLA-A*69:01; assay: IEDB peptide-MHC binding, purified MHC/competitive/fluorescence; filed as Kd, often an IC50 or EC50 that approximates it; bounds were set here for any values at or beyond the usual limits of such assays; settings: source organism: Mycobacterium leprae
pKd: −log10 of the molar value.
VALUE_KIND: pKd

Task: For the sequence shown here, `TVGYMYIMK` , give the reported pKd.
Result: ≤ 4.70

---

target: HLA-A*03:01; test: IEDB peptide-MHC binding, purified MHC/direct/fluorescence; filed as Kd, often an IC50 or EC50 that approximates it; bounds were set here for any values at or beyond the usual limits of such assays; conditions: source organism: Vibrio vulnificus YJ016
pKd: −log10 of the molar value.
VALUE_KIND: pKd

Task: Field: pKd (HLA-A*03:01). Entry: `KRFYQTVGF`
Result: ≤ 4.70

---

biological target: HLA-B*44:03; assay: IEDB peptide-MHC binding, purified MHC/competitive/radioactivity; filed as Kd, often an IC50 or EC50 that approximates it; bounds were set here for any values at or beyond the usual limits of such assays; conditions: source organism: Mammarenavirus juninense
VALUE_KIND: Kd (nM)
Hi! Could you send only the number? It should be in nM, unit omitted.

Task: Would you kindly share the measured Kd for `SEILRTLGF` ?
Result: 37.3

---

molecular target: HLA-A*68:02; test: IEDB peptide-MHC binding, purified MHC/direct/fluorescence; filed as Kd, often an IC50 or EC50 that approximates it; bounds were set here for any values at or beyond the usual limits of such assays; settings: source organism: Vibrio vulnificus YJ016
VALUE_KIND: Kd

Task: What does the record list as Kd for `KRFYQTVGF` ?
Result: ≥ 20 µM

---

The following sequences are shown together with reported Kd values.
target: HLA-B*58:01; experiment: IEDB peptide-MHC binding, purified MHC/direct/fluorescence; filed as Kd, often an IC50 or EC50 that approximates it; bounds were set here for any values at or beyond the usual limits of such assays; conditions: source organism: Mycobacterium tuberculosis

In the examples that follow, each entry is paired with its recorded Kd.
> print(dat)
   sequence.record  meas.value
1        APAKKAAPA     ≥ 20 µM
2        LPAEVRAAF     ≥ 20 µM

Task: Name the recorded Kd for `SPRSRNRSF` .
Result: ≥ 20 µM
